Entry source: PubChem BioAssay AID2060614

system: 598228-144-R-J1-PDC complex spheroids, viability; assay: Anticancer human tumor 598228-144-R-J1-PDC patient-derived serous endometrial adenocarcinoma cell line growth inhibition [CLK]; details: second compound 0.1 µM; first compound 10 µM; active = viability on the fitted dose curve at most 10% of control; inactive = the rest;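 also: spheroids exposed to compounds for seven days before readout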
Outcome codes: Y (active), N (inactive)

{"compound": "C=C(F)C(=O)N1CCN(c2nc(OCC3CCCN3C)nc3c2CCN(c2cccc4cccc(Cl)c24)C3)CC1CC#N (configuration not stated) + CNC(=O)c1ccc(Nc2nc(OC3CCCC3)c3c(-c4ccc5nc(C)oc5c4)c[nH]c3n2)c(OC)c1", "label_class": "Y"}
{"compound": "C=C(F)C(=O)N1CCN(c2nc(OCC3CCCN3C)nc3c2CCN(c2cccc4cccc(Cl)c24)C3)CC1CC#N (configuration not stated) + CN1CCN(c2cc(C(=O)Nc3cc4cc(-c5cnn(C)c5)ccc4cn3)ccn2)CC1", "label_class": "Y"}
{"compound": "C=CC(=O)N1CCN(c2nc(=O)n(-c3c(C)ccnc3C(C)C)c3nc(-c4c(O)cccc4F)c(F)cc23)C(C)C1 (configuration not stated) + CN1CCN(c2cc(C(=O)Nc3cc4cc(-c5cnn(C)c5)ccc4cn3)ccn2)CC1", "label_class": "N"}
{"compound": "Nc1ccccc1NC(=O)c1ccc(CNC(=O)OCc2cccnc2)cc1 + CNC(=O)c1ccc(Nc2nc(OC3CCCC3)c3c(-c4ccc5nc(C)oc5c4)c[nH]c3n2)c(OC)c1", "label_class": "Y"}
{"compound": "Nc1ccn(C2OC(CO)C(O)C2(F)F)c(=O)n1 (configuration not stated) + CNC(=O)c1ccc(Nc2nc(OC3CCCC3)c3c(-c4ccc5nc(C)oc5c4)c[nH]c3n2)c(OC)c1", "label_class": "N"}
{"compound": "COc1cccc2c1C(=O)c1c(O)c3c(c(O)c1C2=O)CC(O)(C(=O)CO)CC3OC1CC(N)C(O)C(C)O1 (configuration not stated) + CN1CCN(c2cc(C(=O)Nc3cc4cc(-c5cnn(C)c5)ccc4cn3)ccn2)CC1", "label_class": "Y"}
{"compound": "CC1(C)CCC(CN2CCN(c3ccc(C(=O)NS(=O)(=O)c4ccc(NCC5CCOCC5)c([N+](=O)[O-])c4)c(Oc4cnc5[nH]ccc5c4)c3)CC2)=C(c2ccc(Cl)cc2)C1 + CN1CCN(c2cc(C(=O)Nc3cc4cc(-c5cnn(C)c5)ccc4cn3)ccn2)CC1", "label_class": "N"}
{"compound": "O=C(c1cc(Cc2n[nH]c(=O)c3ccccc23)ccc1F)N1CCN(C(=O)C2CC2)CC1 + CNC(=O)c1ccc(Nc2nc(OC3CCCC3)c3c(-c4ccc5nc(C)oc5c4)c[nH]c3n2)c(OC)c1", "label_class": "N"}
{"compound": "COc1ccc([C@@H](O)c2cc(-c3ncnc4cc(N5CCOCC5)ccc34)c(F)cc2Cl)nn1 + CNC(=O)c1ccc(Nc2nc(OC3CCCC3)c3c(-c4ccc5nc(C)oc5c4)c[nH]c3n2)c(OC)c1", "label_class": "N"}
{"compound": "CC(=O)O[C@H]1C(=O)[C@@]2(C)[C@H]([C@H](OC(=O)c3ccccc3)[C@]3(O)C[C@H](OC(=O)[C@H](O)[C@@H](NC(=O)c4ccccc4)c4ccccc4)C(C)=C1C3(C)C)[C@]1(OC(C)=O)CO[C@@H]1C[C@@H]2O + CNC(=O)c1ccc(Nc2nc(OC3CCCC3)c3c(-c4ccc5nc(C)oc5c4)c[nH]c3n2)c(OC)c1", "label_class": "N"}
{"compound": "O=c1[nH]cc(F)c(=O)[nH]1 + CN1CCN(c2cc(C(=O)Nc3cc4cc(-c5cnn(C)c5)ccc4cn3)ccn2)CC1", "label_class": "N"}
{"compound": "COc1ccc([C@@H](O)c2cc(-c3ncnc4cc(N5CCOCC5)ccc34)c(F)cc2Cl)nn1 + CN1CCN(c2cc(C(=O)Nc3cc4cc(-c5cnn(C)c5)ccc4cn3)ccn2)CC1", "label_class": "N"}
